Y4 RBA overview
target_or_system: neuropeptide Y4 receptor
Sequence (P50391 whole entry): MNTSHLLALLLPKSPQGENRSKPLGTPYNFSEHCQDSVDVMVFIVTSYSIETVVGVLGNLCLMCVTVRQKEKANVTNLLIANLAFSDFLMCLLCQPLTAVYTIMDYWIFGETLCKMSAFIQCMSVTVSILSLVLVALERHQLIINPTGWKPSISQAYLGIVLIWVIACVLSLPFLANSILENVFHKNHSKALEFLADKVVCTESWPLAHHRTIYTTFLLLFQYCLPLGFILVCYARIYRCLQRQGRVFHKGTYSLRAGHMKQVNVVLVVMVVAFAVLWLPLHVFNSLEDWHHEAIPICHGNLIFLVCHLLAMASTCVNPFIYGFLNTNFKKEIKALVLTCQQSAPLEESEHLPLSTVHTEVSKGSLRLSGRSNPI
protocol_text: radioligand competition, [125I]-hPP, Y4/CHO-K1 membranes

{"binder": "APLEPVYPGDNATPEQLNRYYASLRHYLNLVTRQRY (modifications not checked) [SEQ ID NO 295]", "units_of_measure": "nM", "Y4 RBA": 1}
{"binder": "YPIKPEAPGEDASPQELAQYAADLRRYINMLTRQRY (modifications not checked) [SEQ ID NO 341]", "units_of_measure": "nM", "Y4 RBA": 11}
{"binder": "YPIKPEAPGEDASPEELAQYAADLRRYINMLTRPRY (modifications not checked) [SEQ ID NO 309]", "units_of_measure": "nM", "Y4 RBA": 5.6}
{"binder": "ASLRHYLNLVTRQRY (modifications not checked) [SEQ ID NO 202]", "units_of_measure": "nM", "Y4 RBA": 23}
{"binder": "YPIKPEAGPEDASPEELAQYAADLRRYINMLTRQRY (modifications not checked) [SEQ ID NO 335]", "units_of_measure": "nM", "Y4 RBA": 109}
{"binder": "APLEPVYPGDNATPEQMNRYYASLRAYLNLVTRQRY (modifications not checked) [SEQ ID NO 308]", "units_of_measure": "nM", "Y4 RBA": 2.1}
{"binder": "APLEPVYPGDNATPEELNRYYASLRHYLNLVTRQRY (modifications not checked) [SEQ ID NO 296]", "units_of_measure": "nM", "Y4 RBA": 2.9}
{"binder": "APLEPVYPGDNASPEELNRYYASLRHYLNLVTRQRY (modifications not checked) [SEQ ID NO 297]", "units_of_measure": "nM", "Y4 RBA": 4}
{"binder": "YPIRPEAPGEDASPEELAQYAADLRRYINMLTRQRY (modifications not checked) [SEQ ID NO 332]", "units_of_measure": "nM", "Y4 RBA": 38}
{"binder": "APLEPVYPGDNATPEQMNRYYASLRHFLNLVTRQRY (modifications not checked) [SEQ ID NO 288]", "units_of_measure": "nM", "Y4 RBA": 11}
{"binder": "YPIKPEAPGEDASPEELAQYAAELRRYIQMLTRQRY (modifications not checked) [SEQ ID NO 347]", "units_of_measure": "nM", "Y4 RBA": 740}
{"binder": "YPIKPEAPGEDASPEELAQYAADLKRYINMLTRQRY (modifications not checked) [SEQ ID NO 321]", "units_of_measure": "nM", "Y4 RBA": 57}
{"binder": "APLEPVYPGDNATPEQMNRYYASLRHYLNLAPRQRY (modifications not checked) [SEQ ID NO 289]", "units_of_measure": "nM", "Y4 RBA": 48}
{"binder": "YPIKPEAPGEDASPEELNQYAASLRRYINMLTRQRY (modifications not checked) [SEQ ID NO 317]", "units_of_measure": "nM", "Y4 RBA": 16}
{"binder": "IKPEAPGEDASPEELAQYAADLRRYINMLTRPRY (modifications not checked) [SEQ ID NO 310]", "units_of_measure": "nM", "Y4 RBA": 27}
